studyTarget: T1, recombinant human EGFR extracellular domain with 6xHis (human, UniProt P00533 25-645)
T1 construct: In-house produced; also called 6xHis EGFR ECD; soluble human EGFR ECD; not shown: 6xHis tag
testSummary: SPR competition, competitor 1260
endpoint: % inhibition (%)
Report the figure in % without appending any unit label.

binder | % inhibition [%]
antibody 1347 (antibody, human IgG1, kappa, V domains shown, Chimeric IgG1 kappa) VH: QVQLKESGPGLVAPSQSLSITCTVSGFSLTGHGVNWVRQPPGKGLEWLGMIWGDGSTDYNSTLKSRLSISKDNSKSQVFLKMNSLQTDDTARYYCARGYGYLYYFDYWGQGTTLTVSS VL: ENVLTQSPAIMSASPGEKVTMTCRASSSVSSSYLHWYQQKSGASPKLWIYSTSNLASGVPARFSGSGSGTSYSLTVNSVETEDAATYYCHQYSGFPFTFGSGTKLELKR | 41

Given antibody 1260 (antibody, human IgG1, kappa, V domains shown, Chimeric IgG1 kappa) VH: QVQLKESGPGLVAPSQSLSITCTVSGFSLTTYGVHWVRQPPGKGLEWLGVIWAGGSTNYNSALMSRLSIKKDNSKSQVFLKMNSLQTDDTAMYYCARAYGYNFDYWGQGTTLTVSS VL: DIQMTQTTSSLSASLGDRVTISCSASQGITNYLNWYQQKPDGTVKLLIYYSSSLHSGVPSRFSGSGSGTDYSLTISNLEPEDIATYYCQQYSEIPYTFGGGTKLELKR , respond with its % inhibition.
88

Given antibody 1254 (antibody, human IgG1, kappa, V domains shown, Chimeric IgG1 kappa; also called mAb 1254) VH: EVQLVESGGGLVKPGGSLKLSCAASGFAYSTYDMSWVRQTPEKRLEWVAYISSGGDAAYYPDTVKGRFTISRDNAKNTLYLQMSSLKSEDTAMYYCARSRYGNYGDAMDYWGQGTSVTVSS VL: DVVMTQTPLSLPVSLGDQASISCRSSQSLVHSNGNTYLHWYLQKPGQSPKLLLYKVSNRFSGVPDRFSGSGSGTDFTLKISRVESEDLGVYFCSQNTHVYTFGGGTKLEIKR , respond with its % inhibition.
0
